inhibition at 100 µM listing for selected compounds.
Target: SARS-CoV-2 Mac1 (Severe acute respiratory syndrome coronavirus 2, UniProt P0DTD1)
Experiment: biochemical
Conditions: read-out: %inhibition
Counter-ions that a name gives are not always drawn.
Please reply with the bare figure in % and do not write the unit itself.

Known inhibition at 100 µM results, listed for orientation:
COc1cc(S(=O)(=O)O)ccc1O; 0
CN(C)CCn1nnnc1SCC1=C(C(=O)O)N2C(=O)[C@@H](NC(=O)Cc3csc(N)n3)[C@H]2SC1 [Cefotiam hydrochloride]; 23.3
CN1CCC[C@@H]1Cc1c[nH]c2ccc(CCS(=O)(=O)c3ccccc3)cc12; 0
O=C(O[C@H]1C[N+]2(CCCOc3ccccc3)CCC1CC2)C(O)(c1cccs1)c1cccs1 [Aclidinium Bromide]; 0

Request: Enter reported inhibition at 100 µM observed with SARS-CoV-2 Mac1 (Severe acute respiratory syndrome coronavirus 2, UniProt P0DTD1) for CC(C)OC(=O)CCC/C=C\C[C@@H]1[C@@H](/C=C/[C@@H](O)COc2cccc(C(F)(F)F)c2)[C@H](O)C[C@@H]1O
Result: 0

Request: Enter reported inhibition at 100 µM observed with SARS-CoV-2 Mac1 (Severe acute respiratory syndrome coronavirus 2, UniProt P0DTD1) for COC(=O)N(C)c1c(N)nc(-c2nn(Cc3ccccc3F)c3ncccc23)nc1N
Result: 21.9

Request: Enter reported inhibition at 100 µM observed with SARS-CoV-2 Mac1 (Severe acute respiratory syndrome coronavirus 2, UniProt P0DTD1) for COc1cc(Cc2cnc(N)nc2N)cc(OC)c1OC
Result: 4.05

Data origin: paper doi:10.1101/2021.10.07.463234v2
